assay.protocol: chemical genetic growth profiling, strain panel (AID 1159580);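 also: tested at 20 µM; growth read once vehicle control cultures reached saturation at 30 °C; 1 = growth at the plate median or of vehicle wells; lower values mean less growth of the strain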
condition: S. cerevisiae deletion strains, growth OD, locus YJL187C, strain SWE1, stronger effect = lower value
The campaign covered roughly 5,500 compounds. About 2,000 (36%) were called active. Another 18% or so got no clear call; they are omitted. Some of the results follow.
measured.quantity: normalized growth

1) Cn1c(=O)c2c(ncn2CCO)n(C)c1=O; 1.01
2) Cn1c(=O)[nH]c2ncn(C)c2c1=O; 0.986
3) Cn1cnc2c1c(=O)[nH]c(=O)n2C; 0.983
4) O=c1c(O)c(-c2ccc(O)cc2)oc2ccccc12; 0.725
5) O=c1c(O)c(-c2ccccc2)oc2ccccc12; 0.758
6) Cn1c(=O)c2c(ncn2C)n(C)c1=O; 0.966
7) O=c1c(O)c(-c2ccccc2)oc2cc(O)ccc12; 0.653

----------
assay.protocol: chemical genetic growth profiling, strain panel (AID 1159580);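 also: tested at 20 µM; growth read once vehicle control cultures reached saturation at 30 °C; 1 = growth at the plate median or of vehicle wells; lower values mean less growth of the strain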
condition: S. cerevisiae deletion strains, growth OD, locus YMR307W, strain GAS1
About 2,000 (36%) of roughly 5,500 compounds were called active. Another 18% or so got no clear call; they are omitted. Cut-off read from the data, not from the text of the source: active = normalized growth mostly below about 0.91 (no sharp cut-off); inconclusive = no clear call, values can overlap the other calls; inactive = mostly above about 0.92. This is one part of the list.
Classes used: active, inactive

1. O=C1NCCN=C(c2ccccc2)c2ccccc21; inactive
2. Cc1cc(NS(=O)(=O)c2ccc(NC(=O)c3ccccc3)cc2)no1; inactive
3. O=[N+]([O-])c1ccc(NCCCCCO)nc1; inactive
4. CC(C)N=C(N)N=C(N)Nc1ccc(Cl)cc1; inactive
5. Cc1ccc(NC(=S)C(C#N)C(=O)N2CCCC2)c(C)c1 (configuration not stated); inactive
6. O=C1C(=O)c2ccccc2C(O)=C1C1CCC(c2ccc(Cl)cc2)CC1 (configuration not stated); inactive
7. O=C(OCCNc1ccc([N+](=O)[O-])cn1)c1ccc([N+](=O)[O-])o1; inactive
8. COc1cc2cccc(OC)c(=O)c2c(OC)c1OC; inactive
9. ClC1C(Cl)C(Cl)C(Cl)C(Cl)C1Cl (configuration not stated); inactive
10. CCC1(C2=NCCN2)Cc2ccccc2O1 (configuration not stated); inactive
11. COc1cc(C2Nc3cccc4cccc(c34)N2)cc(OC)c1OC; active
12. O=c1onc2n1-c1cc(Br)ccc1OC2; inactive

----------
assay.protocol: chemical genetic growth profiling, strain panel (AID 1159580);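 also: tested at 20 µM; growth read once vehicle control cultures reached saturation at 30 °C; 1 = growth at the plate median or of vehicle wells; lower values mean less growth of the strain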
condition: S. cerevisiae deletion strains, growth OD, locus YOR184W, strain ser1
Hit rate of the full screen: of about 5,500 compounds, about 2,000 (36%) were called active. Roughly 18% stayed inconclusive and do not appear here. Cut-off read from the data, not from the text of the source: active = normalized growth mostly below about 0.91 (no sharp cut-off); inconclusive = no clear call, values can overlap the other calls; inactive = mostly above about 0.92. The list shows a part of the results.
Classes used: yes (1) = active, no (0) = inactive

1) CC(C)=CCC/C(C)=C/CO; no (0)
2) O[C@H]1[C@H](O)[C@@H](O)C2OC[C@H]1O2; no (0)
3) COc1ccc(CC(=O)c2ccc(O)cc2O)cc1; yes (1)
4) CNC(=O)N(C)c1nnc(C(C)(C)C)s1; no (0)
5) Cc1ccc(O)c(C(CCN(C(C)C)C(C)C)c2ccccc2)c1 (stereo not given); no (0)
6) O=C(O)CCC(=O)OC[C@@H](NC(=O)C(Cl)Cl)[C@H](O)c1ccc([N+](=O)[O-])cc1; no (0)
7) C=C(C)C1Cc2c(ccc3c(=O)c4c(oc23)COc2cc(OC)c(OC)cc2-4)O1 (stereo not given); no (0)
8) COc1ccc(-c2c(O)c3c(OC)c4c(cc3oc2=O)OC(C)(C)C=C4)cc1; no (0)
9) O=C(O)c1cc(=O)c2ccccc2[nH]1; no (0)
10) O=C(CCc1ccc(O)cc1)c1c(O)cc(O)cc1O; no (0)
11) C/C(=C\CO)CC[C@H](C)CCC[C@H](C)CCCC(C)C; yes (1)
12) COc1ccc([C@@H](C)C(=O)c2ccc(O)cc2O)cc1; yes (1)
13) COc1ccc(-c2c(OC)c3c(OC)c4c(cc3oc2=O)OC(C)(C)C=C4)cc1; no (0)
14) CC(NC(C)(C)C)C(=O)c1cccc(Cl)c1 (stereo not given); no (0)
15) COc1cc([C@@H]2c3cc4c(cc3[C@H](O)[C@H]3COC(=O)[C@H]23)OCO4)cc(OC)c1OC; no (0)

The reported measurements were obtained from PubChem BioAssay AID1159580.
